Reference source for all entries: ChEMBL document CHEMBL3272257

- Assay Name: Retardation factor, deltaRm of the compound at pH 13 by TLC analysis
- Format: physicochemical
Listed here: items and their measured deltaRm.
API doc: respond with a numeric literal and nothing else, no unit.

Below: 3 compounds and their reported deltaRm.
Record summary for CCc1cccc(CC)c1NC1=NCCN1 : reported deltaRm = 0.95

Per the records, this compound ( Clc1cc(Cl)c(N=C2NCCN2)c(Cl)c1 ) has deltaRm equal to 1

Measured deltaRm, Clc1ccc(Cl)c(N=C2NCCN2)c1 : 0.71

Next compound, deltaRm to be filled in.
Cc1cc(Cl)ccc1N=C1NCCN1 yielded deltaRm of 0.75

* * *

- Assay Name: Dissociation constant, pKa of the compound in water-ethyl alcohol
- Type: physicochemical
Recorded Endpoint: pKa

These solved cases illustrate the format of a correct answer.
According to the records, this compound Clc1cc(Cl)c(N=C2NCCN2)c(Cl)c1 displays pKa of 7.6

Form field pKa, entry COc1cc(C)ccc1N=C1NCCN1 : 10.6

Sure, the documented pKa for c1ccc(NC2=NCCN2)cc1 is 10.4

response.value for Brc1cccc(Br)c1N=C1NCCN1 (field: pKa) = 7.95

Reported pKa of COc1cc(OC)c(N=C2NCCN2)cc1Cl : 10.2

Looking up Cc1ccc(Cl)cc1N=C1NCCN1 , I found its pKa recorded as 9.5

The reported value for FC(F)(F)c1ccccc1N=C1NCCN1 in terms of pKa is 8.8

Next:
According to the records, this compound Brc1ccc(N=C2NCCN2)cc1 displays pKa of 9.65
